Target: endothelin receptors
Assay: Receptor Binding Assay (displacement of radioactive-iodine-labeled endothelin-1 from swine heart membrane fraction)
Conditions: membrane fraction prepared from swine heart; endothelin-1 labeled with radioactive iodine; incubation at 25° C, 1 hour
*1 amine or outer side, *2 acyl side, *3 side chain or, on linkers, in order; H or OH if unused. Where a SMILES comes first, the peptide text is derived from it. [ ]: non-standard residue; d: D form. The star is where a group is joined. Tyr(3-F) = N[C@@H](Cc1ccc(O)c(F)c1)C(=O)O; Tyr(3-I) = N[C@@H](Cc1ccc(O)c(I)c1)C(=O)O; Phe(4-F) = N[C@@H](Cc1ccc(F)cc1)C(=O)O; Boc = CC(C)(C)OC(=O)*; CO = O=C([*:1])[*:2]; Ahx = NCCCCCC(=O)O; X1 = C1CCCN(*)CC1; βAla = NCCC(=O)O
Assignment: determine reported IC50 for the given compounds.
Response body: numeric value in nM, unit text excluded.

Ask | I'd like to know its IC50. The compound in question is CC(C)C[C@H](NC(=O)OC(C)(C)C)C(=O)N[C@H](Cc1c[nH]c2ccccc12)C(=O)N[C@H](C)C(=O)NCCC(=O)N[C@@H](CCC(=O)O)C(=O)O [Reference Example 1, Boc-Leu-(D)Trp-(D)Ala-βAla-Glu--OH, reference compound] (Boc-L[dW][dA][βAla]E-OH)
Reply | 700

Ask | Query (compound): CC(C)C[C@H](NC(=O)N1CCCCCC1)C(=O)N[C@H](Cc1c[nH]c2ccccc12)C(=O)N[C@H](C)C(=O)NCCC(=O)N[C@@H](Cc1ccc(O)c(I)c1)C(=O)N[C@H](Cc1ccccc1)C(=O)O [Example 43] ({X1-CO}-L[dW][dA][βAla][Tyr(3-I)][dF]-OH) ; field requested: IC50
Reply | 0.71

Ask | Please look up its IC50: CC(C)C[C@H](NC(=O)OC(C)(C)C)C(=O)N[C@H](Cc1c[nH]c2ccccc12)C(=O)N[C@H](C)C(=O)NCCC(=O)N[C@@H](Cc1ccc(O)c(F)c1)C(=O)N[C@@H](Cc1ccc(F)cc1)C(=O)O [Example 38] (Boc-L[dW][dA][βAla][Tyr(3-F)][Phe(4-F)]-OH)
Reply | 60

Ask | Record request: IC50 value, item CC(C)C[C@H](NC(=O)OC(C)(C)C)C(=O)N[C@H](Cc1c[nH]c2ccccc12)C(=O)N[C@H](C)C(=O)NCCC(=O)N[C@@H](Cc1ccc(O)cc1)C(=O)N[C@@H](Cc1ccccc1)C(=O)O [Example 2, Boc-Leu-(D)Trp-(D)Ala-βAla-Tyr-Phe-OH] (Boc-L[dW][dA][βAla]YF-OH)
Reply | 9

Ask | For CC(C)C[C@H](NC(=O)N1CCCCCC1)C(=O)N[C@H](Cc1c[nH]c2ccccc12)C(=O)N[C@H](C)C(=O)NCCC(=O)N[C@@H](Cc1ccc(O)cc1)C(=O)N[C@H](Cc1ccccc1)C(=O)O [Example 39] ({X1-CO}-L[dW][dA][βAla]Y[dF]-OH) , what is its reported IC50?
Reply | 0.34

Ask | Recorded IC50 of CC(C)C[C@H](NC(=O)OC(C)(C)C)C(=O)N[C@H](Cc1c[nH]c2ccccc12)C(=O)N[C@H](C)C(=O)NCCC(=O)N[C@H](CC(C)C)C(=O)O [Reference Example 2, Boc-Leu-(D)Trp-(D)Ala-βAla-(D)Leu--OH, reference compound] (Boc-L[dW][dA][βAla][dL]-OH) , please.
Reply | 420

Ask | Query: IC50; subject: CC(C)C[C@H](NC(=O)OC(C)(C)C)C(=O)N[C@H](Cc1c[nH]c2ccccc12)C(=O)N[C@H](C)C(=O)NCCCCCC(=O)N[C@@H](Cc1ccc(O)cc1)C(=O)N[C@@H](Cc1ccccc1)C(=O)O [Example 5, Boc-Leu-(D)Trp-(D)Ala-εAhx-Tyr-Phe-OH] (Boc-L[dW][dA][Ahx]YF-OH)
Reply | 7.2

Ask | Which value of IC50 has been reported for CC(C)C[C@H](NC(=O)OC(C)(C)C)C(=O)N[C@H](Cc1c[nH]c2ccccc12)C(=O)N[C@H](C)C(=O)NCCC(=O)N[C@@H](Cc1ccc(O)cc1)C(=O)N[C@H](Cc1ccccc1)C(=O)O [Example 1, Boc-Leu-(D)Trp-(D)Ala-βAla-Tyr-(D)Phe-OH] (Boc-L[dW][dA][βAla]Y[dF]-OH) in the records?
Reply | 4.6
